Data credit: patent US4401660A

Examples of compounds with documented ED50 follow.
System: Streptococcus pyogenes C203
Test: ED50 in mice with experimental infections (Table IV)
Type: in vivo
Conditions: Streptococcus pyogenes, C203, oral, doses given 1 and 4 hours postinfection, read-out: ED50, Oral
Could you give me the number in mg/kg? Just the number is fine.

Known ED50 results, listed for orientation:
• CCC1OC(=O)CC(O)C(C)C(OC2OC(C)C(OC(C)=O)C(N(C)C)C2OC(C)=O)C(CC=O)CC(C)C(=O)C=CC(C)=CC1CO (stereo not shown) = 139
• CCC1OC(=O)CC(O)C(C)C(OC2OC(C)C(O)C(N(C)C)C2O)C(CC=O)CC(C)C(=O)C=CC(C)=CC1COC(=O)[C@H](NC(=O)OC(C)(C)C)c1ccccc1 (stereo partly shown) = 116
• CCC1OC(=O)CC(O)C(C)C(OC2OC(C)C(OC(C)=O)C(N(C)C)C2OC(C)=O)C(CC=O)CC(C)C(=O)C=CC(C)=CC1COC(=O)Cc1ccccc1 (stereo not shown) = 159
• CCC(=O)OCC1C=C(C)C=CC(=O)C(C)CC(CC=O)C(OC2OC(C)C(O)C(N(C)C)C2O)C(C)C(O)CC(=O)OC1CC (stereo not shown) = 106
• CCC1OC(=O)CC(O)C(C)C(OC2OC(C)C(OC(C)=O)C(N(C)C)C2OC(C)=O)C(CC=O)CC(C)C(=O)C=CC(C)=CC1COC(C)=O (stereo not shown) = 100

Now let's try a different one.
In: Item CCC1OC(=O)CC(O)C(C)C(OC2OC(C)C(O)C(N(C)C)C2O)C(CC=O)CC(C)C(=O)C=CC(C)=CC1COC(=O)CCCC(=O)OC (stereo not shown) has what recorded ED50?
Out: 87

---

System: Haemophilus influenzae R252
Experiment: MIC, standard agar-dilution assay (Table II)
Assay type: cell-based
Set-up: unit not given here
Details: Haemophilus influenzae R252, ampicillin-resistant strain
Examples of compounds with documented minimal inhibitory concentration (MIC) follow.
Number only, no unit.

Known minimal inhibitory concentration (MIC) results, listed for orientation:
• CCC1OC(=O)CC(O)C(C)C(OC2OC(C)C(O)C(N(C)C)C2OC(C)=O)C(CC=O)CC(C)C(=O)C=CC(C)=CC1COC(=O)Cc1ccc([N+](=O)[O-])cc1 (centres unmarked) = 1
• CCC(=O)OCC1C=C(C)C=CC(=O)C(C)CC(CC=O)C(OC2OC(C)C(O)C(N(C)C)C2OC(C)=O)C(C)C(O)CC(=O)OC1CC (centres unmarked) = 8
• CCC1OC(=O)CC(O)C(C)C(OC2OC(C)C(O)C(N(C)C)C2O)C(CC=O)CC(C)C(=O)C=CC(C)=CC1COC(=O)C(C)C (centres unmarked) = 4
• CCC1OC(=O)CC(O)C(C)C(OC2OC(C)C(OC(C)=O)C(N(C)C)C2OC(C)=O)C(CC=O)CC(C)C(=O)C=CC(C)=CC1COC(=O)COc1ccccc1 (centres unmarked) = 1

Now let's try a different one.
In: Item CCC1OC(=O)CC(O)C(C)C(OC2OC(C)C(O)C(N(C)C)C2O)C(CC=O)CC(C)C(=O)C=CC(C)=CC1COC(=O)c1ccc2ccccc2c1 (centres unmarked) has what recorded minimal inhibitory concentration (MIC)?
Out: 2

---

Test system: Staphylococcus aureus X400
Assay: MIC, standard agar-dilution assay (Table II)
Type: cell-based
Parameters: unit not given here
Details: Staphylococcus aureus X400, methicillin-resistant strain
endpoint: minimal inhibitory concentration (MIC)
Number only, no unit.

Known minimal inhibitory concentration (MIC) results, listed for orientation:
• CCC1OC(=O)CC(O)C(C)C(OC2OC(C)C(O)C(N(C)C)C2O)C(CC=O)CC(C)C(=O)C=CC(C)=CC1COC(=O)Cc1ccc(Cl)cc1 (centres unmarked) = 0.25
• CCCCCCCC(=O)OCC1C=C(C)C=CC(=O)C(C)CC(CC=O)C(OC2OC(C)C(O)C(N(C)C)C2O)C(C)C(O)CC(=O)OC1CC (centres unmarked) = 0.5
• CCCCCCCC(=O)OCC1C=C(C)C=CC(=O)C(C)CC(CC=O)C(OC2OC(C)C(OC(C)=O)C(N(C)C)C2OC(C)=O)C(C)C(O)CC(=O)OC1CC (centres unmarked) = 1
• CCC1OC(=O)CC(O)C(C)C(OC2OC(C)C(O)C(N(C)C)C2OC(C)=O)C(CC=O)CC(C)C(=O)C=CC(C)=CC1COC(=O)C12CC3CC(CC(C3)C1)C2 (centres unmarked) = 1
• CCC1OC(=O)CC(O)C(C)C(OC2OC(C)C(OC(C)=O)C(N(C)C)C2OC(C)=O)C(CC=O)CC(C)C(=O)C=CC(C)=CC1CO (centres unmarked) = 4

Now let's try a different one.
In: Request: minimal inhibitory concentration (MIC), test system Staphylococcus aureus X400, entry CCC1OC(=O)CC(O)C(C)C(OC2OC(C)C(O)C(N(C)C)C2O)C(CC=O)CC(C)C(=O)C=CC(C)=CC1COC(=O)C(N)c1ccccc1 (centres unmarked)
Out: 1

---

Examples of compounds with documented minimal inhibitory concentration (MIC) follow.
Tested on: Haemophilus influenzae R252
Experiment: MIC, standard agar-dilution assay (Table II)
Assay type: cell-based
Set-up: unit not given here
Conditions: Haemophilus influenzae R252, ampicillin-resistant strain

Known minimal inhibitory concentration (MIC) results, listed for orientation:
• CCC1OC(=O)CC(O)C(C)C(OC2OC(C)C(O)C(N(C)C)C2OC(=O)Cc2ccccc2)C(CC=O)CC(C)C(=O)C=CC(C)=CC1CO (stereo not shown) = 0.5
• CCC1OC(=O)CC(O)C(C)C(OC2OC(C)C(O)C(N(C)C)C2O)C(CC=O)CC(C)C(=O)C=CC(C)=CC1COC(=O)Cc1ccc([N+](=O)[O-])cc1 (stereo not shown) = 1
• CCC1OC(=O)CC(O)C(C)C(OC2OC(C)C(O)C(N(C)C)C2O)C(CC=O)CC(C)C(=O)C=CC(C)=CC1COC(=O)C(C)(C)C (stereo not shown) = 2

In: Item CCC1OC(=O)CC(O)C(C)C(OC2OC(C)C(O)C(N(C)C)C2O)C(CC=O)CC(C)C(=O)C=CC(C)=CC1COC(=O)CCCC(=O)OC (stereo not shown) has what recorded minimal inhibitory concentration (MIC)?
Out: 1

In: Item CCC(=O)OCC1C=C(C)C=CC(=O)C(C)CC(CC=O)C(OC2OC(C)C(O)C(N(C)C)C2OC(=O)CC)C(C)C(O)CC(=O)OC1CC (stereo not shown) has what recorded minimal inhibitory concentration (MIC)?
Out: 8

---

System: Pasteurella multocida 40G
Assay: MIC, broth-dilution microtiter test (Table III)
Format: cell-based
Set-up: unit not given here
Examples of compounds with documented minimal inhibitory concentration (MIC) follow.
Number only, no unit.

• CCC1OC(=O)CC(O)C(C)C(OC2OC(C)C(OC(C)=O)C(N(C)C)C2OC(C)=O)C(CC=O)CC(C)C(=O)C=CC(C)=CC1COC(=O)C(Cl)Cl (stereo not drawn) [Compound 66] = 3.12
• CCC(=O)OCC1C=C(C)C=CC(=O)C(C)CC(CC=O)C(OC2OC(C)C(O)C(N(C)C)C2OC(=O)CC)C(C)C(O)CC(=O)OC1CC (stereo not drawn) [Compound 10, 2',23-Di-O-Propionyl-OMT] = 1.56
• CCC1OC(=O)CC(O)C(C)C(OC2OC(C)C(O)C(N(C)C)C2O)C(CC=O)CC(C)C(=O)C=CC(C)=CC1COC(=O)Cc1ccc([N+](=O)[O-])cc1 (stereo not drawn) [Compound 65] = 1.56
• CCC(=O)OC1C(C)OC(OC2C(CC=O)CC(C)C(=O)C=CC(C)=CC(CO)C(CC)OC(=O)CC(O)C2C)C(OC(=O)CC)C1N(C)C (stereo not drawn) [Compound 4] = 6.25
• CCC1OC(=O)CC(O)C(C)C(OC2OC(C)C(OC(C)=O)C(N(C)C)C2OC(C)=O)C(CC=O)CC(C)C(=O)C=CC(C)=CC1COC(C)=O (stereo not drawn) [Compound 7, 2',4',23-Tri-O-acetyl-OMT] = 1.56
• CCC1OC(=O)CC(O)C(C)C(OC2OC(C)C(O)C(N(C)C)C2OC(C)=O)C(CC=O)CC(C)C(=O)C=CC(C)=CC1COC(=O)c1ccc2ccccc2c1 (stereo not drawn) [Compound 58] = 3.12

In: Item CCC1OC(=O)CC(O)C(C)C(OC2OC(C)C(O)C(N(C)C)C2O)C(CC=O)CC(C)C(=O)C=CC(C)=CC1COP(=O)(Oc1ccccc1)Oc1ccccc1 (stereo not drawn) [Compound 48, 23-O-(Diphenylphosphoryl)-OMT] has what recorded minimal inhibitory concentration (MIC)?
Out: 6.25

In: Item CCC1OC(=O)CC(O)C(C)C(OC2OC(C)C(O)C(N(C)C)C2O)C(CC=O)CC(C)C(=O)C=CC(C)=CC1COC(=O)Cc1cccnc1 (stereo not drawn) [Compound 44, 23-O-(3-Pyridylacetyl)-OMT] has what recorded minimal inhibitory concentration (MIC)?
Out: 3.12

In: Item CCC1OC(=O)CC(O)C(C)C(OC2OC(C)C(OC(C)=O)C(N(C)C)C2OC(C)=O)C(CC=O)CC(C)C(=O)C=CC(C)=CC1COS(=O)(=O)c1ccc(C)cc1 (stereo not drawn) [Compound 55] has what recorded minimal inhibitory concentration (MIC)?
Out: 6.25

In: Item CCC1OC(=O)CC(O)C(C)C(OC2OC(C)C(O)C(N(C)C)C2OC(C)=O)C(CC=O)CC(C)C(=O)C=CC(C)=CC1COC(=O)CCCC(=O)OC (stereo not drawn) [Compound 71] has what recorded minimal inhibitory concentration (MIC)?
Out: 3.12

In: Item CCC1OC(=O)CC(O)C(C)C(OC2OC(C)C(O)C(N(C)C)C2O)C(CC=O)CC(C)C(=O)C=CC(C)=CC1COC(=O)CSc1ccc(Cl)c(Cl)c1 (stereo not drawn) [Compound 38] has what recorded minimal inhibitory concentration (MIC)?
Out: 1.56

In: Item CCC1OC(=O)CC(O)C(C)C(OC2OC(C)C(O)C(N(C)C)C2O)C(CC=O)CC(C)C(=O)C=CC(C)=CC1COC(=O)[C@H](O)c1ccccc1 (stereo partly drawn) [Compound 42, 23-O-Mandeloyl-OMT] has what recorded minimal inhibitory concentration (MIC)?
Out: 1.56

In: Item CCC1OC(=O)CC(O)C(C)C(OC2OC(C)C(O)C(N(C)C)C2O)C(CC=O)CC(C)C(=O)C=CC(C)=CC1COC(=O)CCc1ccccc1 (stereo not drawn) [Compound 54] has what recorded minimal inhibitory concentration (MIC)?
Out: 3.12
